Provide the recorded Kd for the entries that follow.
- study-target: T1, eTau-4 peptide
- T1 construct: also called synthetic eTau4 polypeptide
- T1 peptide: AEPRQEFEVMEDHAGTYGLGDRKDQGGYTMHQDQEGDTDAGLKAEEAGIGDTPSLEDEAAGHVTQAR
- assay-text: relative binding affinity, method not named (Table 4); sixth column, headed eTau 4
Provide the reading as a plain figure in nM.

Task: Field request: Kd | item: VH3/Vk1 (antibody, V domains shown, member of the group m7; also called humanized IPN002 variant VH3/Vk1) VH: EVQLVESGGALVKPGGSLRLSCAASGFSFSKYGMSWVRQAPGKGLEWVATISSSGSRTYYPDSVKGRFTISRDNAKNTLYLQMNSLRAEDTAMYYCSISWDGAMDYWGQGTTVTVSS VL: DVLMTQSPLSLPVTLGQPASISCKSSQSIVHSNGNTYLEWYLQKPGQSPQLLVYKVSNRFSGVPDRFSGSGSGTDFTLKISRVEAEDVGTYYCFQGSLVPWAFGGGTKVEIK
Result: 0.921

Task: Field request: Kd | item: VH2/Vk4 (antibody, V domains shown, member of the group m7; also called humanized IPN002 variant VH2/Vk4) VH: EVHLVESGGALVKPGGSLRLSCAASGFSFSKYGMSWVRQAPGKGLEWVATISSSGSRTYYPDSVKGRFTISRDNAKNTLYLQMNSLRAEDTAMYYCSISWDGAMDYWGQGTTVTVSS VL: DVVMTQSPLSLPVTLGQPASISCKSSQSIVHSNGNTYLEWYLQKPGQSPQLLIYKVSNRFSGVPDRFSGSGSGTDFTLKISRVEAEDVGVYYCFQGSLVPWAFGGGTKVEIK
Result: 0.671

Task: Field request: Kd | item: VH3/Vk3 (antibody, V domains shown, member of the group m7; also called humanized IPN002 variant VH3/Vk3) VH: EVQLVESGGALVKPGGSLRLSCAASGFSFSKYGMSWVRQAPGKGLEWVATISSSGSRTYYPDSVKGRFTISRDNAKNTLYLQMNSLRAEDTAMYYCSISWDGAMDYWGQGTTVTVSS VL: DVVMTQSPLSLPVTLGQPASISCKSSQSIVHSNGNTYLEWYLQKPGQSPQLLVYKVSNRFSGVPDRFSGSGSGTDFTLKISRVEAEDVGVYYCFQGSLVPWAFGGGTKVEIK
Result: 0.665

Data credit: patent US20160122421A1
